# Experimental System: pooled human IgG (human); also: test concentration or dose not given here
# Experimental Protocol: cell-based or functional assay
Kindly supply the reported Enzyme Activity Endpoint Assay (purified): IgG values for the records listed here.
API: value field is a number in ng/µL; no unit string.

## Task Name the recorded Enzyme Activity Endpoint Assay (purified): IgG of the item PRT-195 (enzyme) MANQEIRYSEVTPYHVTSVWTKGVTPPDHDFRKIVDGEDVFHAPYVANQGWYDITKTFNGKDDLLCGAATAGNMLHWWFDQNKDQIKRYLEEHPEKQKINFNGEQMFDVKEAIDTKNHQLDSKLFEYFKEKAFPYLSTKHLGVFPDHVIDMFINGYRLSLTNHGPTPVKEGSKDPRGGIFDAVFTRGDQSKLLTSRHDFKEKNLKEISDLIKKELTEGKALGLSHTYANVRHSINHVINLWGADFDSNGNLKAIYVTDSDDKKLTIGDERIGMKKYFVGVNSAGKVAISAKEIKEDNIGAQVLGLFTLSTGQDSWNQTN in your answer.
## Result 829

## Task Name the recorded Enzyme Activity Endpoint Assay (purified): IgG of the item PRT-221 (enzyme) MEVVEVWPYGQNPNGKTEILSQTEDSESLQRLRDIEDFQAEKKMQNVVYTKWLDGVDVKDHDFRKIVDGNIAYYATPLLNGRGFYDINKDFNRDSDKCAAAVAANMFHYWLDINRDNVDRFLRQNPEKHGIIELPDGQLKLSDFLNTYESDHGYRDKSKLFDFISNNFNGPVWTDKLLDNYINGYAYNYKYGRTIEDPTKNTSKINFFKEVFNEKILTNNHSIRNQNEFSVLLSEALYTGKAIGLSYGPAGLRHSLGHIISVWGADLDADGNVVAIYVTDSDDKKLTIGDERVGLKRYKISTDDENRLRLTAYEETHNTGGQIRGLWTLDTGKQAWADYFDKTEQTGTDQAEQLEHHHHHH in your answer.
## Result 653
